// values below are reported pIC50
Target: Recombinant human cathepsin A (Homo sapiens (Human))
Assay: Cathepsin A inhibitory activity (cleavage of Bodipy FL-labeled bradykinin, microfluidic capillary electrophoresis)
Format: biochemical
Conditions: read-out: Activity (IC50, cathepsin A inhibition)
pIC50: −log10 of the molar value.
readout_type: pIC50

COc1ccc(-c2cccc(C(=O)NC(CC(=O)O)c3ccccc3Cl)n2)cc1 (stereo not drawn) = 5.85
O=C(O)CC(NC(=O)c1cccc(-c2ccccc2)n1)c1ccccc1Cl (stereo not drawn) = 5.51
O=C(O)C[C@H](NC(=O)c1cccc(-c2ccccc2Cl)n1)c1cccc(F)c1 = 5.13
COc1ccc(C(=O)N[C@@H](CC(=O)O)c2ccccc2Cl)nc1-c1cccc(C2(O)COC2)c1 = 5.41
CCc1ccnc(C(=O)NC(CC(=O)O)c2ccccc2Cl)c1 (stereo not drawn) = 4.99
O=C(O)CC(NC(=O)c1cccc(-c2ccccc2F)n1)c1ccccc1Cl (stereo not drawn) = 5.31
COc1cc(C(=O)NC(CC(=O)O)c2ccccc2Cl)ccn1 (stereo not drawn) = 5.29
Cc1cccc(C(=O)NC(CC(=O)O)c2ccccc2Cl)n1 (stereo not drawn) = 5.30
O=C(O)CC(NC(=O)c1cc(-c2ccccc2)ccn1)c1ccccc1Cl (stereo not drawn) = 5.39
COc1ccccc1-c1cccc(C(=O)NC(CC(=O)O)c2ccccc2Cl)n1 (stereo not drawn) = 5.84
O=C(O)CC(NC(=O)c1cccc(F)n1)c1ccccc1Cl (stereo not drawn) = 5.12
COc1ccc(C(=O)N[C@@H](CC(=O)O)c2ccccc2Cl)nc1-c1cc(C)ccc1Cl = 5.98
C[C@@](CC(=O)O)(NC(=O)c1cccc(-c2ccccc2Cl)n1)c1ccccc1 = 5.24
Cc1ccccc1[C@H](CC(=O)O)NC(=O)c1nc(Cl)ccc1Cl = 5.07
O=C(O)CC(NC(=O)c1nc(Cl)ccc1Cl)c1ccc(-c2ccccc2)cc1 (stereo not drawn) = 5.07
O=C(O)C[C@H](NC(=O)c1cccc(-c2ccccc2Cl)n1)c1ccccc1 = 5.66
O=C(O)CC(NC(=O)c1cccc(Cl)n1)c1ccccc1Cl (stereo not drawn) = 5.80
O=C(O)CC(NC(=O)c1cncc(-c2ccccc2)c1)c1ccccc1Cl (stereo not drawn) = 4.93
COc1ccc(C(=O)N[C@@H](CC(=O)O)c2ccccc2Cl)nc1-c1ccc(C#N)cc1F = 4.94
O=C(O)CC(NC(=O)c1ccc2cnccc2n1)c1ccccc1Cl (stereo not drawn) = 4.95
O=C(O)CC(NC(=O)c1ccc(Oc2ccccc2)nc1)c1ccccc1Cl (stereo not drawn) = 5.06
Cc1ccnc(C(=O)NC(CC(=O)O)c2ccccc2Cl)c1 (stereo not drawn) = 5.24
O=C(O)CC(NC(=O)c1cc(O)ccn1)c1ccccc1Cl (stereo not drawn) = 5.29
COc1ccc(C(=O)NC(CC(=O)O)c2ccccc2Cl)nc1Cl (stereo not drawn) = 5.97
Cc1ccccc1[C@H](CC(=O)O)NC(=O)c1cncc(Cl)n1 = 5.92
O=C(O)CC(NC(=O)c1cnccn1)c1ccccc1Cl (stereo not drawn) = 4.89
O=C(O)CC(NC(=O)c1cccc(Br)n1)c1ccccc1Cl (stereo not drawn) = 5.68
CC(C)Cc1cc(C(=O)NC(CC(=O)O)c2ccccc2Cl)nc(N)n1 (stereo not drawn) = 4.85
O=C(O)C[C@@H](Cc1ccccc1)NC(=O)c1cccc(-c2ccccc2F)n1 = 5.27
O=C(O)CC(NC(=O)c1ccncc1)c1ccccc1Cl (stereo not drawn) = 4.99
Cc1ccc([C@H](CC(=O)O)NC(=O)c2cccc(-c3ccccc3Cl)n2)cc1 = 4.81
COc1ccc(C(=O)N[C@@H](CC(=O)O)c2ccccc2Cl)nc1-c1cccc(C(C)(C)O)c1 = 5.54
Cc1ccc([C@H](CC(=O)O)NC(=O)c2cccc(-c3ccccc3F)n2)cc1 = 5.36
O=C(O)CC(NC(=O)c1ncccc1F)c1ccccc1Cl (stereo not drawn) = 5.28
O=C(O)CC(NC(=O)c1ccc2nc[nH]c2n1)c1ccccc1Cl (stereo not drawn) = 4.97
O=C(O)CC(NC(=O)c1ccnc(N2CCCC2)c1)c1ccccc1Cl (stereo not drawn) = 4.95

* * *

Entries and their pIC50
Target: Recombinant human cathepsin A (Homo sapiens (Human))
Experiment: Cathepsin A inhibitory activity (cleavage of Bodipy FL-labeled bradykinin, microfluidic capillary electrophoresis)
Assay type: biochemical
Conditions: read-out: Activity (IC50, cathepsin A inhibitory activity)
pIC50: −log10 of the molar value.
readout_type: pIC50

COc1ncc(C(=O)N[C@@H](CC(=O)O)c2ccccc2C)cc1-c1ccc(Cl)cc1 = 5.24
COc1ncc(C(=O)N[C@@H](CC(=O)O)c2ccccc2C)cc1-c1ccccc1C = 5.93
COc1ccc(Cl)cc1-c1nc(C(=O)N[C@@H](CC(=O)O)c2ccccc2Cl)ccc1OC = 5.94
COc1ccc(C(=O)N[C@@H](CC(=O)O)c2ccccc2Cl)nc1-c1ccncc1 = 5.09

* * *

Target: Recombinant human cathepsin A (Homo sapiens (Human))
Test: Cathepsin A inhibitory activity (cleavage of Bodipy FL-labeled bradykinin, microfluidic capillary electrophoresis)
Type: biochemical
Details: read-out: Activity [μM] (IC50, cathepsin A inhibitory activity)
Entries and their IC50
readout_type: IC50 (µM)

COc1ccc(C(=O)N[C@@H](CC(=O)O)c2ccccc2C)nc1-c1ccc2ccn(C)c2c1 [compound 380] = 5.33
COc1ccc(-c2cc(C(=O)N[C@@H](CC(=O)O)c3ccccc3Cl)cnc2OC)cc1 [compound 387] = 9.43
COc1ccc(C(=O)N[C@@H](CC(=O)O)c2ccc(C)cc2)nc1-c1cc(F)cc(F)c1 [compound 207] = 2.65
Cc1ccc(-c2cncc(C(=O)N[C@@H](CC(=O)O)c3ccccc3C)c2)c(C)c1 [compound 117] = 5.27

* * *

Target: Recombinant human cathepsin A (Homo sapiens (Human), UniProt P10619)
Sequence (P10619 29-326): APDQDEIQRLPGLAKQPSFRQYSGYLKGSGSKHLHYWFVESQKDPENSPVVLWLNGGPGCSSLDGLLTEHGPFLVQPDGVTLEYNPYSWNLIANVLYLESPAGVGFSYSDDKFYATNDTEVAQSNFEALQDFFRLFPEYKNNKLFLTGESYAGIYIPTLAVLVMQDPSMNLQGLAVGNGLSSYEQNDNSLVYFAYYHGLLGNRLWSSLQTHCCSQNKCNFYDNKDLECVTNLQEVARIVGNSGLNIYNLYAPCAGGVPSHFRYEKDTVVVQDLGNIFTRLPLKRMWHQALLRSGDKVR
Sequence (P10619 327-480): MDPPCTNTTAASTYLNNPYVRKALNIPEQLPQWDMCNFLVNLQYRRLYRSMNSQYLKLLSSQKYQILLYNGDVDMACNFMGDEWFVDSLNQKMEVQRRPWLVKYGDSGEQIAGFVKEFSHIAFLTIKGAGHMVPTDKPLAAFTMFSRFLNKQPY
Experiment: Cathepsin A inhibitory activity (cleavage of Bodipy FL-labeled bradykinin, microfluidic capillary electrophoresis)
Assay type: biochemical
Settings: read-out: Activity (IC50, cathepsin A inhibitory activity)
pIC50: −log10 of the molar value.
Quick reference for pIC50 among some compounds
readout_type: pIC50

Cc1cc(C)nc(C(=O)N[C@@H](CC(=O)O)c2ccccc2C)c1 = 5.74
COc1ccc(C(=O)N[C@@H](CC(=O)O)c2ccccc2Cl)nc1-c1ccc(F)c(C)c1 = 5.42
CCc1ccnc(C(=O)N[C@@H](CC(=O)O)c2ccccc2C)c1 = 5.51
COc1cc(Cl)ccc1-c1nc(C(=O)N[C@@H](CC(=O)O)c2ccccc2F)ccc1OC = 5.74

* * *

As shown below, each of these compounds has a reported pIC50 value.
Target: Recombinant human cathepsin A (Homo sapiens (Human))
Experiment: Cathepsin A inhibitory activity (cleavage of Bodipy FL-labeled bradykinin, microfluidic capillary electrophoresis)
Assay type: biochemical
Details: read-out: Activity (IC50, cathepsin A inhibitory activity)
pIC50: −log10 of the molar value.
readout_type: pIC50

COc1cccnc1C(=O)N[C@@H](CC(=O)O)c1ccccc1C [compound 9] = 5.14
COc1ccc(C(=O)N[C@@H](CC(=O)O)c2ccccc2Cl)nc1-c1ccc(C)c(F)c1 [compound 449] = 5.70
Cc1ccccc1[C@H](CC(=O)O)NC(=O)c1cncc(-c2ccc3c(c2)OCO3)c1 [compound 76] = 5.09
COc1ccc(C(=O)N[C@@H](CC(=O)O)c2ccccc2F)nc1-c1cccc(C(F)(F)F)c1 [compound 253] = 5.39
COc1ccc(C(=O)N[C@@H](CC(=O)O)c2ccc(C)cc2)nc1-c1ccc(C)o1 [compound 237] = 5.45
COc1ccc(C(=O)N[C@@H](CC(=O)O)c2ccccc2F)nc1-c1ccc(C)cc1 [compound 260] = 5.29
COc1ccc(C(=O)N[C@@H](CC(=O)O)c2ccccc2F)nc1-c1ccc(F)c(F)c1 [compound 280] = 5.51
COc1ccc(C(=O)N[C@@H](CC(=O)O)c2ccccc2F)nc1-c1cccc(C)c1 [compound 269] = 5.99
Cc1ccccc1[C@H](CC(=O)O)NC(=O)c1cncc(-c2ccccc2F)c1 [compound 69] = 5.85
COc1ncc(C(=O)N[C@@H](CC(=O)O)c2ccccc2C)cc1-c1ccccc1 [compound 405] = 5.41

* * *

Molecular target: Recombinant human cathepsin A (Homo sapiens (Human), UniProt P10619)
Assay: Cathepsin A inhibitory activity (cleavage of Bodipy FL-labeled bradykinin, microfluidic capillary electrophoresis)
Assay type: biochemical
Conditions: read-out: Activity [μM] (IC50, cathepsin A inhibitory activity)
IC50 for assorted compounds
readout_type: IC50 (µM)

COc1ccc(C(=O)N[C@@H](CC(=O)O)c2ccccc2C)nc1-c1cncnc1 = 8.88
COc1ccc(C(=O)N[C@@H](CC(=O)O)c2ccccc2C)nc1-c1ccc(C(C)=O)cc1 = 9.24
COc1ccc(C(=O)N[C@@H](CC(=O)O)c2ccc(C)cc2)nc1-c1ccc2ccccc2c1 = 8.83

* * *

Biological target: Recombinant human cathepsin A (Homo sapiens (Human))
Experiment: Cathepsin A inhibitory activity (cleavage of Bodipy FL-labeled bradykinin, microfluidic capillary electrophoresis)
Assay type: biochemical
Details: read-out: Activity (Cathepsin A inhibitory activity, IC50)
pIC50: −log10 of the molar value.
As shown below, each of these molecules has a reported pIC50 value.
readout_type: pIC50

O=C(O)CC(NC(=O)c1cc(Sc2ncccn2)ccn1)c1ccccc1Cl (centres unmarked) = 5.41
O=C(O)C[C@H](NC(=O)c1cccc(-c2ccccc2F)n1)c1ccc(Cl)cc1Cl = 5.64
O=C(O)C[C@H](NC(=O)c1cccc(-c2ccccc2Cl)n1)c1cccc(Cl)c1Cl = 5.63
O=C(O)C[C@H](NC(=O)c1cccc(-c2ccccc2F)n1)c1cccc(Cl)c1Cl = 5.41
COc1ccc([C@H](CC(=O)O)NC(=O)c2cccc(-c3ccccc3Cl)n2)cc1 = 5.55
COc1cc(OC)nc(Oc2cccnc2C(=O)NC(CC(=O)O)c2ccccc2Cl)n1 (centres unmarked) = 5.45
COc1ccc(C(=O)NC(CC(=O)O)c2ccccc2Cl)nc1Br (centres unmarked) = 5.84
O=C(O)C[C@H](NC(=O)c1cccc(-c2ccccc2F)n1)c1ccc(C(F)(F)F)cc1 = 5.20
